# methodNotes: Stability against human liver microsomes
# Assay type: in vitro ADME
# conditionDetails: 2 μM compound
parameterMeasured: Liver microsome stability remaining % after 60 min incubation with NADPH, human LM (%)

[
  {
    "compound": "CO/N=C/c1c(C)c(Cl)c(OC)c(C/C=C(C)/C=C/[C@@]2(C)[C@H](C)CC/C(=N\\OCCN(C)C)[C@@H]2C)c1O",
    "unitsSymbol": "%",
    "valueObserved": 88
  },
  {
    "compound": "COc1c(Cl)c(C)c(/C=N/O)c(O)c1C/C=C(C)/C=C/[C@@]1(C)[C@H](C)CC/C(=N\\O)[C@@H]1C",
    "unitsSymbol": "%",
    "valueObserved": 74
  },
  {
    "compound": "CCNC1CC[C@@H](C)[C@](C)(/C=C/C(C)=C/Cc2c(O)c(/C=N/OC)c(C)c(Cl)c2OC)[C@H]1C (stereo partly drawn)",
    "unitsSymbol": "%",
    "valueObserved": 100
  },
  {
    "compound": "CC(/C=C/[C@@]1(C)[C@H](C)CC/C(=N\\O)[C@@H]1C)=C\\Cc1c(O)c(C=O)c(C)c(Cl)c1OCF",
    "unitsSymbol": "%",
    "valueObserved": 86
  }
]

(A) CO/N=C/c1c(C)c(Cl)c(OC)c(C/C=C(C)/C=C/[C@@]2(C)[C@H](C)CC/C(=N\O)[C@@H]2C)c1O
(B) CO/N=C/c1c(C)c(Cl)c(OC)c(C/C=C(C)/C=C/[C@@]2(C)[C@H](C)CC/C(=N\OCCN3CCOCC3)[C@@H]2C)c1O
Choose between A and B : whose measured Liver microsome stability remaining % after 60 min incubation with NADPH, human LM value is numerically larger? Answer format: the label of the selected item. A

* * *

# methodNotes: Stability against mouse liver microsomes
# Format: in vitro ADME
# conditionDetails: mouse LM, 2 μM compound, 60 min, NADPH
parameterMeasured: Liver microsome stability remaining % after 60 min incubation with NADPH, mouse LM (%)

[
  {
    "compound": "CCNC1CC[C@@H](C)[C@](C)(/C=C/C(C)=C/Cc2c(O)c(/C=N/OC)c(C)c(Cl)c2OC)[C@H]1C (stereo partly shown)",
    "valueObserved": 80
  },
  {
    "compound": "CO/N=C/c1c(C)c(Cl)c(OC)c(C/C=C(C)/C=C/[C@@]2(C)[C@H](C)CC/C(=N\\OCC(=O)O)[C@@H]2C)c1O",
    "valueObserved": 89
  },
  {
    "compound": "CO/N=C/c1c(C)c(Cl)c(OC)c(C/C=C(C)/C=C/[C@@]2(C)[C@H](C)CCC(C)(O)[C@@H]2C)c1O (stereo partly shown)",
    "valueObserved": 88
  },
  {
    "compound": "CO/N=C/c1c(C)c(Cl)c(OC)c(C/C=C(C)/C=C/[C@@]2(C)[C@H](C)CC/C(=N\\OCCN(C)C)[C@@H]2C)c1O",
    "valueObserved": 79
  }
]

* * *

# methodNotes: Solubility in pH4.0 and pH7.4 phosphate buffer solution
# Assay type: physicochemical
# conditionDetails: phosphate buffer (PBS), aqueous buffer, kinetic from dmso stock; pH 4.0 phosphate buffer solution, 2 hr incubation, 25° C.; read-out: Solubility, pH 4.0 PBS
parameterMeasured: solubility at 2 h (µM)

[
  {
    "molecule": "CCNC1CC[C@@H](C)[C@](C)(/C=C/C(C)=C/Cc2c(O)c(/C=N/OC)c(C)c(Cl)c2OC)[C@H]1C (stereo partly drawn) [Compound 21]",
    "unitsSymbol": "µM",
    "valueObserved": 168
  }
]

(A) COc1c(Cl)c(C)c(C=O)c(O)c1C/C=C(C)/C=C/[C@@]1(C)[C@H](C)CCC(NC2CC2)[C@@H]1C (stereo partly drawn) [Compound 22]
(B) CO/N=C/c1c(C)c(Cl)c(OC)c(C/C=C(C)/C=C/[C@@]2(C)[C@H](C)CC/C(=N\OCCN(C)C)[C@@H]2C)c1O [Compound 15]
(C) CC(/C=C/[C@@]1(C)[C@H](C)CCC(NC2CC2)[C@@H]1C)=C\Cc1c(O)c(C=O)c(C)c(Cl)c1OCF (stereo partly drawn) [Compound 13]
(D) CO/N=C/c1c(C)c(Cl)c(OC)c(C/C=C(C)/C=C/[C@@]2(C)[C@H](C)CC/C(=N\OCC(=O)O)[C@@H]2C)c1O [Compound 19]
Rank by solubility at 2 h (largest to smallest). # output: labels, in the requested order D, B, A, C
(D: 148 µM, B: 54 µM, A: 29 µM, C: 18 µM)

* * *

# methodNotes: Solubility in pH4.0 and pH7.4 phosphate buffer solution
# Type: physicochemical
# conditionDetails: phosphate buffer (PBS), aqueous buffer, kinetic from dmso stock; pH 7.4 phosphate buffer solution, 2 hr incubation, 25° C.; read-out: Solubility, pH 7.4 PBS
parameterMeasured: solubility at 2 h (µM)

The following compounds have reported results that may help.
[
  {
    "compound": "CCNC1CC[C@@H](C)[C@](C)(/C=C/C(C)=C/Cc2c(O)c(C=O)c(C)c(Cl)c2OC)[C@H]1C (stereo partly shown) [Compound 20]",
    "solubility at 2 h / µM": 0.32
  },
  {
    "compound": "CC(/C=C/[C@@]1(C)[C@H](C)CCC(NC2CC2)[C@@H]1C)=C\\Cc1c(O)c(C=O)c(C)c(Cl)c1OCF (stereo partly shown) [Compound 13]",
    "solubility at 2 h / µM": 0.01
  }
]

(1) CO/N=C/c1c(C)c(Cl)c(OC)c(C/C=C(C)/C=C/[C@@]2(C)[C@H](C)CC/C(=N\OCC(=O)O)[C@@H]2C)c1O [Compound 19]
(2) CO/N=C/c1c(C)c(Cl)c(OC)c(C/C=C(C)/C=C/[C@@]2(C)[C@H](C)CC/C(=N\OCCN3CCN(C)CC3)[C@@H]2C)c1O [Compound 17]
Choose between 1 and 2 : whose measured solubility at 2 h value is numerically larger? Answer format: the label of the selected item. 1
(1: 23.7 µM, 2: 0.04 µM)

* * *

# methodNotes: Stability against human liver microsomes
# Type: in vitro ADME
# conditionDetails: 2 μM compound
# Protocol: Determination of Stability Against Mouse and Human Mirosomes Pooled human liver microsomes (Cat. 452161; Lot. 23418) were purchased from Corning and pooled male mouse liver microsomes (Cat. M1000; Lot. 1210302) were purchased from Xenotech. Microsomes were stored at −80° C. prior to use. 40 μL of ultra-pure H2O was used instead of NADPH solution in the negative control. The negative control was used to exclude the misleading factor that was resulted from instability of chemical itself. […]
parameterMeasured: Liver microsome stability remaining % after 60 min incubation with NADPH, human LM (%)

[
  {
    "molecule": "CO/N=C/c1c(C)c(Cl)c(OC)c(C/C=C(C)/C=C/[C@@]2(C)[C@H](C)CCC(NC3CC3)[C@@H]2C)c1O (stereo partly drawn)",
    "valueObserved": 74
  },
  {
    "molecule": "CO/N=C/c1c(C)c(Cl)c(OCF)c(C/C=C(C)/C=C/[C@@]2(C)[C@H](C)CC/C(=N\\OC)[C@@H]2C)c1O",
    "valueObserved": 100
  },
  {
    "molecule": "CO/N=C/c1c(C)c(Cl)c(OC)c(C/C=C(C)/C=C/[C@@]2(C)[C@H](C)CC/C(=N\\OCCN3CCN(C)CC3)[C@@H]2C)c1O",
    "valueObserved": 76
  }
]

* * *

# methodNotes: Stability against mouse liver microsomes
# Format: in vitro ADME
# conditionDetails: mouse LM, 2 μM compound, 60 min, NADPH
parameterMeasured: Liver microsome stability remaining % after 60 min incubation with NADPH, mouse LM (%)

The following compounds have reported results that may help.
[
  {
    "compound": "CO/N=C/c1c(C)c(Cl)c(OC)c(C/C=C(C)/C=C/[C@@]2(C)[C@H](C)CC/C(=N\\O)[C@@H]2C)c1O",
    "unitsSymbol": "%",
    "valueObserved": 63
  },
  {
    "compound": "COc1c(Cl)c(C)c(C=O)c(O)c1C/C=C(C)/C=C/[C@@]1(C)[C@H](C)CCC(=O)[C@@H]1C [MAC, reference compound]",
    "unitsSymbol": "%",
    "valueObserved": 6
  },
  {
    "compound": "COc1c(Cl)c(C)c(/C=N/O)c(O)c1C/C=C(C)/C=C/[C@@]1(C)[C@H](C)CC/C(=N\\O)[C@@H]1C",
    "unitsSymbol": "%",
    "valueObserved": 58
  },
  {
    "compound": "CO/N=C/c1c(C)c(Cl)c(OC)c(C/C=C(C)/C=C/[C@@]2(C)[C@H](C)CC/C(=N\\OCCN3CCN(C)CC3)[C@@H]2C)c1O",
    "unitsSymbol": "%",
    "valueObserved": 55
  }
]

(a) CC(/C=C/[C@@]1(C)[C@H](C)CC/C(=N\O)[C@@H]1C)=C\Cc1c(O)c(/C=N/O)c(C)c(Cl)c1OCF
(b) COc1c(Cl)c(C)c(/C=N/O)c(O)c1C/C=C(C)/C=C/[C@@]1(C)[C@H](C)CCC(C)(O)[C@@H]1C (stereo partly drawn)
Choose between a and b : whose measured Liver microsome stability remaining % after 60 min incubation with NADPH, mouse LM value is numerically larger? Answer format: the label of the selected item. b
